The reader will find reported melting point values listed item by item below.

Compound: O=C(CN1CCSCC1)Nc1nc(-c2ccco2)c(C(=O)c2ccccn2)s1
Result: 148 to 149 °C

Compound: COC1(CN2CCN(CC(=O)Nc3nc(-c4ccco4)c(C(=O)C4CCOCC4)s3)CC2)CC1
Result: 155 to 157 °C

Compound: CN1CCCN(CC(=O)Nc2nc(-c3ccco3)c(C(=O)C3CCOCC3)s2)CC1
Result: 94 to 96 °C

Report melting point for O=C1CCC(C(=O)c2sc(NC(=O)c3ccncc3)nc2-c2ccco2)CC1 please.
206 to 212 °C

Report melting point for O=C(Nc1nc(-c2ccco2)c(C(=O)C(F)(F)F)s1)c1ccncc1 please.
268 to 270 °C

Report melting point for COCC#CC(=O)c1sc(NC(=O)c2ccncc2)nc1-c1ccco1 please.
198 to 200 °C

Report melting point for CCN1CCN(CC(=O)Nc2nc(-c3ccco3)c(C(=O)c3ccccn3)s2)CC1 please.
142 to 144 °C

Report melting point for O=C(c1ccccn1)c1sc(NC(=O)N2CCCCC2)nc1-c1ccco1 please.
182 to 185 °C

Report melting point for Cc1csc(C(=O)c2sc(NC(=O)c3ccncc3)nc2-c2ccco2)n1 please.
250 to 255 °C

###

The reader will find reported melting point values listed item by item below.

Molecule: O=C(Nc1nc(-c2ccco2)c(C(=O)C2CCOCC2)s1)c1ccnc(Cl)c1 [Compound 404]
Result: 185 to 186 °C

Molecule: O=C(Nc1nc(-c2ccco2)c(C(=O)c2ccccn2)s1)c1ccc2c(c1)OCCO2 [Compound 118]
Result: 189 to 191 °C

Molecule: CN(C)c1ccc(C(=O)c2sc(NC(=O)c3ccncc3)nc2-c2ccco2)cn1 [Compound 230]
Result: 260 to 265 °C (dec.)

Molecule: COCCN(C)c1cc(C(=O)Nc2nc(-c3ccco3)c(C(=O)c3ccccn3)s2)ccn1 [Compound 125]
Result: 114 to 117 °C

Molecule: CN(C)Cc1cc(C(=O)Nc2nc(-c3ccco3)c(C(=O)c3ccccc3)s2)ccn1 [Compound 49]
Result: 205 to 209 °C

Molecule: O=C(Nc1nc(-c2ccco2)c(C(=O)C2CCCC2)s1)C1CC1 [Compound 339]
Result: 182 to 187 °C

Molecule: CCOC(=O)Nc1nc(-c2ccco2)c(C(=O)c2ccccn2)s1 [Compound 158]
Result: 158 to 159 °C

Molecule: Cc1ccccc1C(=O)Nc1nc(-c2ccco2)c(C(=O)C2CCOCC2)s1 [Compound 363]
Result: 204 to 206 °C

Molecule: O=C(Nc1nc(-c2ccco2)c(C(=O)C2CCOCC2)s1)c1cccc(F)c1 [Compound 372]
Result: 229 to 231 °C

Molecule: COc1ccc(-c2c[nH]c(-c3nc(-c4ccco4)c(C(=O)C4CCOCC4)s3)n2)cc1 [Compound 520]
Result: 178 to 180 °C

Report melting point for Cc1cc(C(=O)Nc2nc(-c3ccco3)c(C(=O)c3ccnc(C)c3)s2)ccn1 [Compound 240] please.
205 to 229 °C

Report melting point for O=C(Nc1nc(-c2ccco2)c(C(=O)c2ccccn2)s1)c1ccc([N+](=O)[O-])o1 [Compound 144] please.
278 to 283 °C (dec.)

Report melting point for O=C(Nc1nc(-c2ccco2)c(C(=O)c2cnccn2)s1)c1ccncc1 [Compound 281] please.
> 300 °C

Report melting point for O=C(Nc1nc(-c2ccco2)c(C(=O)C2CCOCC2)s1)c1cccc(OC(F)(F)F)c1 [Compound 381] please.
197 to 198 °C

Report melting point for O=C(CN1CCN(C2CCOCC2)CC1)Nc1nc(-c2ccco2)c(C(=O)c2ccccn2)s1 [Compound 187] please.
172 to 188 °C

Report melting point for O=C(Nc1nc(-c2ccco2)c(C(=O)C2CCOCC2)s1)c1c(F)cccc1F [Compound 397] please.
168 to 170 °C

Report melting point for CCC(=O)c1sc(NC(=O)c2ccncc2)nc1-c1ccco1 [Compound 288] please.
225 to 240 °C (dec.)

###

The reader will find reported melting point values listed item by item below.

Examples with their reported melting point follow.
Compound: O=C(Nc1nc(-c2ccco2)c(C(=O)c2ccccn2)s1)c1ccc(Br)o1 [Compound 143]
Result: 211 to 212 °C

Compound: COCCN(C)c1cc(C(=O)Nc2nc(-c3ccco3)c(C(=O)c3ccccc3)s2)ccn1 [Compound 53]
Result: 145 to 147 °C

Compound: CC(=O)c1ccc(C(=O)Nc2nc(-c3ccco3)c(C(=O)c3ccccn3)s2)cc1 [Compound 116]
Result: 204 to 206 °C

Report melting point for CN(C)Cc1ccc(C(=O)Nc2nc(-c3ccco3)c(C(=O)C3CCOCC3)s2)cc1 [Compound 384] please.
109 to 112 °C

Report melting point for O=C(c1ccccn1)c1sc(NC(=O)C2COc3ccccc3O2)nc1-c1ccco1 (centres unmarked) [Compound 119] please.
103 to 104 °C

###

Readout label: melting point

Examples with their reported melting point follow.
Compound: Cc1ccc(C(=O)Nc2nc(-c3ccco3)c(C(=O)C3CCOCC3)s2)o1
melting point: 209 to 212 °C
//
Compound: O=C(c1sc(NC(=O)C2CCCO2)nc1-c1ccco1)C1CCOCC1 (centres unmarked)
melting point: 115 to 117 °C
//
Compound: O=C(Nc1nc(-c2ccco2)c(C(=O)c2ccccn2)s1)OC1CCOCC1
melting point: 144 to 145 °C
//
Compound: Cc1ccc(C(=O)c2sc(NC(=O)c3ccncc3)nc2-c2ccco2)o1
melting point: 185 to 189 °C

Report melting point for O=C(Nc1nc(-c2ccco2)c(C(=O)C2CCOCC2)s1)c1ccsc1 please.
227 to 229 °C

Report melting point for N#Cc1cccc(C(=O)Nc2nc(-c3ccco3)c(C(=O)c3ccccn3)s2)c1 please.
234 to 237 °C

Report melting point for COc1cccc(OC)c1C(=O)Nc1nc(-c2ccco2)c(C(=O)C2CCOCC2)s1 please.
152 to 156 °C

Report melting point for COc1cccc(C(=O)Nc2nc(-c3ccco3)c(C(=O)C3CCC(=O)CC3)s2)c1 please.
176 to 183 °C

###

The reader will find reported melting point values listed item by item below.

Report melting point for O=C(Nc1nc(-c2ccco2)c(C(=O)c2ccccn2)s1)OC(CF)CF please.
158 to 159 °C

Report melting point for Cc1ccnc(C(=O)c2sc(NC(=O)c3ccncc3)nc2-c2ccco2)c1 please.
240 to 245 °C

###

The reader will find reported melting point values listed item by item below.

Compound: COc1cc(C(=O)c2sc(NC(=O)c3ccncc3)nc2-c2ccco2)ccn1 [Compound 243]
melting point: 237 to 239 °C

Compound: CCn1ccc(C(=O)c2sc(NC(=O)c3ccncc3)nc2-c2ccco2)c1 [Compound 262]
melting point: 127 to 134 °C

Report melting point for O=C(Nc1nc(-c2ccco2)c(C(=O)C2CCCCC2)s1)c1ccncc1 [Compound 344] please.
197 to 199 °C

Report melting point for COC[C@H]1CCCN1CC(=O)Nc1nc(-c2ccco2)c(C(=O)C2CCOCC2)s1 [Compound 442] please.
103 to 104 °C

Report melting point for Cc1cncc(C(=O)Nc2nc(-c3ccco3)c(C(=O)c3ccccn3)s2)c1 [Compound 131] please.
245 to 248 °C

Report melting point for Cc1cc(C(=O)Nc2nc(-c3ccco3)c(C(=O)C3CCC(=O)CC3)s2)ccn1 [Compound 354] please.
108 to 115 °C

Report melting point for COc1cc(C(=O)Nc2nc(-c3ccco3)c(C(=O)c3ccccn3)s2)cc(OC)c1OC [Compound 112] please.
172 to 180 °C (dec.)

Report melting point for COc1ccc(C(=O)Nc2nc(-c3ccco3)c(C(=O)C3CCOCC3)s2)c(OC)c1 [Compound 389] please.
219 to 222 °C

Report melting point for O=C(Nc1nc(-c2ccco2)c(C(=O)C2CCOCC2)s1)c1cnn(-c2ccccc2)c1 [Compound 426] please.
217 to 220 °C

Report melting point for Cc1cc(C(=O)c2sc(NC(=O)c3ccncc3)nc2-c2ccco2)ccn1 [Compound 239] please.
223 to 225 °C

Report melting point for O=C(Nc1nc(-c2ccco2)c(C(=O)c2ccccn2)s1)OC1CCCC1 [Compound 160] please.
162 to 163 °C

Report melting point for O=C(Nc1nc(-c2ccco2)c(C(=O)C2CCOCC2)s1)c1ccc2c(c1)OC(F)(F)O2 [Compound 403] please.
124 to 129 °C

###

Readout label: melting point

Item smiles: CN1CCC(OC(=O)Nc2nc(-c3ccco3)c(C(=O)c3ccccn3)s2)CC1
melting point: 222 to 225 °C

Item smiles: Cn1ccc(C(=O)c2sc(NC(=O)c3ccncc3)nc2-c2ccco2)cc1=O
melting point: 243 to 255 °C (dec.)

Item smiles: O=C(Nc1nc(-c2ccco2)c(C(=O)C2CCOCC2)s1)c1cnccn1
melting point: 200 to 205 °C

Item smiles: CCn1ccc(C(=O)c2sc(NC(=O)c3ccncc3)nc2-c2ccco2)cc1=O
melting point: 277 to 281 °C

Item smiles: COCCNC(=O)Nc1nc(-c2ccco2)c(C(=O)c2ccccn2)s1
melting point: 150 to 151 °C

Item smiles: CC(=O)c1sc(NC(=O)c2ccncc2)nc1-c1ccco1
melting point: 252 to 259 °C (dec.)

Item smiles: O=C(Nc1nc(-c2ccco2)c(C(=O)C2CCOCC2)s1)c1ccc(F)cc1F
melting point: 213 to 215 °C

Item smiles: O=C(c1cccnc1)c1sc(NC(=O)C2CC2)nc1-c1ccco1
melting point: 231 to 233 °C

Report melting point for COC1CCN(CC(=O)Nc2nc(-c3ccco3)c(C(=O)c3ccccn3)s2)CC1.Cl please.
220 to 232 °C (dec.)

Report melting point for O=C(Nc1nc(-c2ccco2)c(C(=O)C2CCC2)s1)c1ccco1 please.
188 to 192 °C

Report melting point for O=C(Nc1nc(-c2ccco2)c(C(=O)C2CCOCC2)s1)c1ccco1 please.
196 to 198 °C

Report melting point for O=C(c1sc(NC(=O)N2CCOCC2)nc1-c1ccco1)C1CCCC1 please.
108 to 110 °C

Report melting point for COC[C@@H]1CCCN1CC(=O)Nc1nc(-c2ccco2)c(C(=O)C2CCOCC2)s1 please.
102 to 103 °C

Report melting point for O=C(Nc1nc(-c2ccco2)c(C(=O)c2ccccn2)s1)c1ccoc1 please.
187 to 189 °C

Report melting point for COc1ccccc1C(=O)Nc1nc(-c2ccco2)c(C(=O)c2ccccn2)s1 please.
205 to 208 °C
